# Test system: protein-protein interaction between Kras and SOS1 (biotin-tagged human Kras loaded with GDP, His-tagged human SOS1) (Homo sapiens (Human), UniProt P01116, G12D)
# Experiment: Protein-protein interaction inhibition between Kras and SOS1 (KrasG12D-SOS PPI) using AlphaScreen;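 further: kras produced in E. coli, Ni-coupled donor beads and streptavidin acceptor beads, excitation 680 nm with emission detected at 520–620 nm via singlet oxygen transfer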
# Type: biochemical
# Test conditions: AlphaScreen; biotin-tagged human Kras loaded with GDP, His-tagged human SOS1; read-out: KRAS G12D-SOS PPI IC50
Numbered stars: 1 amine (or outer) side, 2 acyl side, 3 side chain; on linkers, the order of the positions; unused ones are H or OH. Bridge positions count the residues as written; N and C are the ends. Square brackets hold non-standard residues; d marks the D form. Peptide text beside a SMILES is read from it. * marks the point of attachment. hPhe(3,5-F2-4-CF3) = N[C@@H](CCc1cc(F)c(C(F)(F)F)c(F)c1)C(=O)O; hPhe(3-Cl-4-CF3) = N[C@@H](CCc1ccc(C(F)(F)F)c(Cl)c1)C(=O)O; hPhe(4-CF3) = N[C@@H](CCc1ccc(C(F)(F)F)cc1)C(=O)O; NMeAbu(4,4,4-F3) = CN[C@@H](CC(F)(F)F)C(=O)O; NMePhe(4-Cl) = CN[C@@H](Cc1ccc(Cl)cc1)C(=O)O; NMePhe(4-Me) = CN[C@@H](Cc1ccc(C)cc1)C(=O)O; NMedβ3hAla = C[C@H](CC(=O)[*:2])N(C)[*:1]; NMeGly(cPent) = CN[C@H](C(=O)O)C1CCCC1; NMeGly(cBu) = CN[C@H](C(=O)O)C1CCC1; NMeCha = CN[C@@H](CC1CCCCC1)C(=O)O; Hyp = O=C(O)[C@@H]1C[C@@H](O)CN1; NMeChg = CN[C@H](C(=O)O)C1CCCCC1; NMeF = CN[C@@H](Cc1ccccc1)C(=O)O; NMeI = CC[C@H](C)[C@H](NC)C(=O)O; X58 = CNCCOCCN(CC(=O)[*:2])[*:1]; d(β3hL) = CC(C)C[C@@H](N)CC(=O)O; NMeD = CN[C@@H](CC(=O)O)C(=O)O; NMeL = CN[C@@H](CC(C)C)C(=O)O; NMeV = CN[C@H](C(=O)O)C(C)C; d(β3hA) = C[C@@H](N)CC(=O)O; NPhGly = O=C(O)CNc1ccccc1; NMeA = CN[C@@H](C)C(=O)O; Pyrrolidide = C1CCN(*)C1; Ac5c = NC1(C(=O)O)CCCC1; Aze = O=C(O)[C@@H]1CCN1; Sar = CNCC(=O)O
Property label: IC50 (nM)
Answers are plain numbers, in nM.

These recorded examples may help you get a feel for the data.
INSERT INTO assay_data (compound, recorded_value) VALUES
  ('CC[C@H](C)[C@@H]1NC(=O)[C@H](CC(C)C)N(C)C(=O)C[C@@H](CC(C)C)NC(=O)[C@H]([C@@H](C)CC)N(C)C(=O)C2(CCCC2)NC(=O)[C@@H]2CCCN2C(=O)[C@H](CCc2cc(F)c(C(F)(F)F)c(F)c2)NC(=O)CN(C)C(=O)[C@H](Cc2ccc(C)cc2)N(C)C(=O)[C@@H]2CCN2C(=O)[C@H](C)N(C)C1=O [Compound 1891] (cyclo([Ac5c][NMeI][d(β3hL)][NMeL]I[NMeA][Aze][NMePhe(4-Me)][Sar][hPhe(3,5-F2-4-CF3)]P))', 230),
  ('CCO[C@@H]1C[C@H]2C(=O)NC3(CCCC3)C(=O)N(C)[C@@H](C3CCCCC3)C(=O)N(C)[C@H](C(=O)N3CCCC3)CC(=O)N(C)[C@@H](CC(F)(F)F)C(=O)N[C@@H]([C@@H](C)CC)C(=O)N(C)CC(=O)N(C)CC(=O)N(C)[C@@H](CC3CCCCC3)C(=O)N(C)CC(=O)N[C@@H](CCc3ccc(C(F)(F)F)c(Cl)c3)C(=O)N2C1 [Compound 1369] ([NMeAbu(4,4,4-F3)]I[Sar][Sar][NMeCha][Sar][hPhe(3-Cl-4-CF3)][Hyp](Et)[Ac5c][NMeChg][NMeD]-Pyrrolidide; lactam N-11)', 0.55),
  ('CC[C@H](C)[C@@H]1NC(=O)[C@H](CC(C)C)N(C)C(=O)C[C@@H](C(=O)N(C)C)N(C)C(=O)[C@H](C2CCCC2)N(C)C(=O)C2(CCCC2)NC(=O)CN(CCOCCNC)C(=O)[C@H](CCc2ccc(C(F)(F)F)c(Cl)c2)NC(=O)CN(C)C(=O)[C@H](CC2CCCCC2)N(C)C(=O)[C@@H]2CCN2C(=O)[C@H](C)N(C)C1=O [Compound 2183] ([NMeL]I[NMeA][Aze][NMeCha][Sar][hPhe(3-Cl-4-CF3)][X58][Ac5c][NMeGly(cPent)][NMeD]-NMe2; lactam N-11)', 1.9);

Give IC50 for all compounds that follow.
1. CC[C@H](C)[C@@H]1NC(=O)[C@H](C)N(C)C(=O)C[C@@H](C)N(C)C(=O)[C@H](C2CCC2)N(C)C(=O)C2(CCCC2)NC(=O)CN(c2ccccc2)C(=O)[C@H](CCc2ccc(C(F)(F)F)c(Cl)c2)NC(=O)CN(C)C(=O)[C@H](CC2CCCCC2)N(C)C(=O)CN(C)C(=O)CN(C)C1=O [Compound 2143] (cyclo([Ac5c][NMeGly(cBu)][NMedβ3hAla][NMeA]I[Sar][Sar][NMeCha][Sar][hPhe(3-Cl-4-CF3)][NPhGly]))
2. CC[C@H](C)[C@@H]1NC(=O)[C@H](C)N(C)C(=O)C[C@@H](C)NC(=O)[C@H](C(C)C)N(C)C(=O)[C@H](Cc2ccccc2)N(C)C(=O)[C@H](CC(C)C)N(C)C(=O)[C@H](CCc2ccc(C(F)(F)F)cc2)NC(=O)CN(C)C(=O)[C@H](Cc2ccc(Cl)cc2)N(C)C(=O)CN(C)C(=O)CN(C)C1=O [Compound 51] (cyclo(I[Sar][Sar][NMePhe(4-Cl)][Sar][hPhe(4-CF3)][NMeL][NMeF][NMeV][d(β3hA)][NMeA]))

Output line:
41
90
